Biological target: T1, recombinant human IFN-γ protein (human, UniProt P01579 24-166, limits assumed)
T1 construct: Bought protein; also called interferon gamma; R&D systems 285-IF-100
T1 sequence: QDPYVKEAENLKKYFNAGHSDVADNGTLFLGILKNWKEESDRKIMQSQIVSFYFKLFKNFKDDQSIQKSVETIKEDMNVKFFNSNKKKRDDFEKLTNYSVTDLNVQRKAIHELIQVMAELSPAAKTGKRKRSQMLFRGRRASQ
Assay: ELISA, biotinylated human IFN-γ on streptavidin plate, HRP anti-human IgG, OD 450-650 nm
Test Readout: EC50 (read off the curve)

// antibody 2A6_Q (antibody, human IgG1, V domains shown, removes the N-glycosylation site of the VH; human IgG1 lambda; also called c2A6_Q) VH: EVQLVESGGGLVKPGDSLTVSCVASGFTFSNYFIHWVRQAPGKGLEWVATISGRTKYMFYSDSLRGRFTVSRDNAQNSVYLHMSSLRGEDTALYYCVRGYDHSDSNSAADLLHWGRGTLVTVSS VL: NFMLTQPLSVSGYPGKTIVISCVRSSGSVASHYVQWFQQRPGSAPAMVIYEDSHRPSGIPDRFSGSVDASSNSASLTISGLKTEDEADYFCQSYYGNNQVLFGGGTKLTVL : EC50 (read off the curve) value = ~7 ng/mL
